System: CIT;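 further: KINOMEscan kinase panel screen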
Settings: concentration: 1 μM,replicates: in singlicate; n = 1
Consider the following molecules and their measured %Inh readings.
Entry rule: numbers only, all in %.

[[record]]
molecule = "N#Cc1cccc(C(=O)NC2CCN(c3ccnc(Nc4ccc(F)cc4)n3)C2)c1 (centres unmarked) [GSK1379708]"
test_system = "CIT"
unit_spec = "%"
value_measured = 11

[[record]]
molecule = "O=C(Nc1ccc(Oc2ccc3nc(NC(=O)C4CC4)cn3n2)c(F)c1)c1cccn(-c2ccccc2)c1=O"
test_system = "CIT"
unit_spec = "%"
value_measured = 30

[[record]]
molecule = "Cc1ccc(CC(=O)N2CCc3cc(-c4cn(C)c5ncnc(N)c45)ccc32)cc1 [GSK2634758]"
test_system = "CIT"
unit_spec = "%"
value_measured = 19

[[record]]
molecule = "CC(C)S(=O)(=O)N1CCN(Cc2ccc3c(c2)nc(NC(=O)c2ccsc2)n3C[C@H](O)c2ccccc2)CC1 [GW635815]"
test_system = "CIT"
unit_spec = "%"
value_measured = 98.4

[[record]]
molecule = "CCNCC(Cc1ccccc1)NC(=O)c1cc(Br)c(-c2ccnc3[nH]ccc23)s1.Cl.Cl (centres unmarked) [GSK1383280]"
test_system = "CIT"
unit_spec = "%"
value_measured = 73


Recorded %Inh for Cl.c1ccc(Oc2ccc(Nc3ccnc4cc(-c5ccc(CN6CCNCC6)o5)ccc34)cc2)nc1 [GW567142] , please?
9

Query CN1CCN(CCNc2nc3cc(Oc4ccc(NC(=O)Nc5cc(C(F)(F)F)ccc5F)cc4)ccc3[nH]2)CC1.Cl.Cl [GW768504] next
67

Query CC(=O)Nc1nc2cnc(Nc3cc(NC(=O)c4cccc(CC(C)(C)C#N)c4)ccc3C)nc2s1 next
68

Where these numbers come from: paper PMC5540273
